Endpoint summary: pIC50, system: Cholecystokinin receptor type A (Cavia porcellus, UniProt Q63931), multiple sources combined.
Sequence (Q63931 whole entry): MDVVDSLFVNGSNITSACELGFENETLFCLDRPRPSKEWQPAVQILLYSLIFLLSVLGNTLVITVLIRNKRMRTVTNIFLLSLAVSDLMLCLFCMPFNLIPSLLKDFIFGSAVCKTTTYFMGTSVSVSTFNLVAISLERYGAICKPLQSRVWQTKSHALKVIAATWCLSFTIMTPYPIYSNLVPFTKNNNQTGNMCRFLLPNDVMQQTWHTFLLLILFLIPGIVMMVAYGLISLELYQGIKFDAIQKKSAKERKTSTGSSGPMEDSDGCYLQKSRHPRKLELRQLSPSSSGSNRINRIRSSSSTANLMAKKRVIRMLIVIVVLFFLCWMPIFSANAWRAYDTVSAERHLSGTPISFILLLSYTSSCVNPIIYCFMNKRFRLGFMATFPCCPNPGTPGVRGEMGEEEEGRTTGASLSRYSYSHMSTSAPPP
// pIC50: -log10(molar conc.)

Look over these answered cases.
Cc1ccccc1NC(=O)NCCCC[C@H](NC(=O)C(Cc1c[nH]c2ccccc12)NC(=O)OC(C)(C)C)C(=O)N1CCC(=O)N(C(Cc2ccccc2)C(N)=O)CC1 (stereo partly drawn) on Cholecystokinin receptor type A (Cavia porcellus, UniProt Q63931) gives pIC50 = 6.12

Per the reported Cholecystokinin receptor type A (Cavia porcellus, UniProt Q63931) data, Cc1cccc(NC(=O)N[C@H](COC(=O)Nc2ccccc2)C(=O)N2CCC(C(=O)c3ccccc3)CC2)c1 has pIC50 of 6.54

Simply: CN(C(=O)[C@H](CC(=O)O)NNC[C@H](CCCCNC(=O)/C=C\c1ccc(O)cc1)NC(=O)[C@H](Cc1c[nH]c2ccccc12)NC(=O)OC(C)(C)C)[C@@H](Cc1ccccc1)C(N)=O , Cholecystokinin receptor type A (Cavia porcellus, UniProt Q63931), pIC50 = 6.60

New cases:
Cc1ccccc1NC(=O)NCCCC[C@H](NC(=O)C(Cc1c[nH]c2ccccc12)NC(=O)OC(C)(C)C)C(=O)N[C@@H]1CC(=O)N([C@@H](Cc2ccccc2)C(N)=O)C1 (stereo partly drawn) on Cholecystokinin receptor type A (Cavia porcellus, UniProt Q63931) gives pIC50 = 7.80

I looked up Cc1ccc2c(c1)N(CC(=O)NC(C)(C)C)C(=O)[C@H](NC(=O)Nc1cccc(C(=O)NS(=O)(=O)c3ccccc3)c1)C[C@@H]2c1ccccc1 and its pIC50 for Cholecystokinin receptor type A (Cavia porcellus, UniProt Q63931) was 5.89

Param item: Cc1ccc2c(c1)N(CC(=O)NC(C)(C)C)C(=O)[C@@H](NC(=O)Nc1cccc(Cl)c1)C[C@H]2c1ccccc1 ; param system: Cholecystokinin receptor type A (Cavia porcellus, UniProt Q63931); output pIC50: 6.44

Tested on Cholecystokinin receptor type A (Cavia porcellus, UniProt Q63931): Cc1ccccc1NC(=O)NCCCC[C@H](NC(=O)C(Cc1c[nH]c2ccccc12)NC(=O)OC(C)(C)C)C(=O)N(C)CCC(=O)N(C)C(Cc1ccccc1)C(N)=O (stereo partly drawn) . Observed pIC50: 8.15
